# activation values compiled below
Experiment: endothelial E-selectin upregulation by compounds – imaging, HUVEC, cherry-picked samples, dose response (AID 977605);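 further: signal is the share of imaged cells scored positive for E-selectin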
Settings: HUVEC E-selectin immunostaining, at 19.5 µM (top of the series), percent of TNF-alpha response over vehicle
Active and inactive are the calls of the source.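 How the source made its calls: active means fitted curve reaches 40% activation below the top valid tested dose, in every test run; inconclusive means test runs disagree on the call; inactive means the rest, including effects opposite to the expected direction.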

[
  {
    "smiles.notation": "CC(C)NC(=O)N(C)C[C@@H]1Oc2ccc(NC(=O)CCC(F)(F)F)cc2CC(=O)N([C@@H](C)CO)C[C@H]1C",
    "activation": "0.007% (inactive)"
  },
  {
    "smiles.notation": "COc1ccc(CN(C)C[C@H]2Oc3ccc(N(C)C)cc3CC(=O)N([C@H](C)CO)C[C@H]2C)cc1",
    "activation": "0.315% (inactive)"
  },
  {
    "smiles.notation": "COc1ccc(C#Cc2ccc3c(c2)O[C@@H](CN(C)C(=O)Nc2cccc(OC)c2)[C@H](C)CN([C@@H](C)CO)S3(=O)=O)cc1",
    "activation": "4.46% (inactive)"
  }
]

Query: Identify activation associated with the compound COc1ccc(NC(=O)Nc2ccc3c(c2)C(=O)N([C@@H](C)CO)C[C@H](C)[C@@H](CN(C)C)O3)cc1
Reply: 1.42% (inactive)
